- Tested on: MS2 coat protein
- assayName: apparent KD of MS2 coat protein; higher = weaker reporter binding
- particulars: Eterna round: R107; input ligand: tryptophan 2.4 mM
observedProperty: apparent KD of MS2 coat protein (nM)
Answers are plain numbers, in nM.

# recordSequence, observedMeasurement
records = [
    ("UAAACACAUGAGGAUCACCCAUGUCAUGAUACCAGUCAACAUGAGGACCCUUGGCAGCAUAAAAUGGGUAACAUGAGGAUCACCC [AstrosEXyTheA#2]", 51.5),
    ("GUCUCUGAGAGAAGGAGCGUGAAGACAUGAGGAUCACCCAUGUAGAGGCGCCGAAGGCGUUCGCAGGUAGGUCGCUCUCAGAGAC [#1 Same State - Arginine B Attempt #20 (HarryS)]", 18.4),
    ("UGCAUGAUCUGAAGGAGCGUGUAUGAUGAUAACAUGAGGAUCACCCAUGUCGAGACGGUAACACAGGUAGGUCGCAGAUCAUGCU [Arg B SS t4]", 24.7),
]

# return apparent KD of MS2 coat protein for each item in the list
1. GGACUAACUGGAAGGAGCGACGCGCAGAAACUGCAAUUUCCUCCACACGAGGAUCACCCGUGUCAGGUAGGUCGCCAGUUAGUCG [ArgBX 29]
2. CCAUAGGGUAAAUACAUAAUCAUAUCUGAAGGAGCGUGGAUAAACACAGGUAGGUCGCAGAAUCACAUGAGGAUCACCCAUGUCU [Same State Arginine A GF11]
3. GGGCCCGGGCGCGAGCCCGGGCCCAUUGAUACCAGUGAAAAUAUACGCCCUUGGCAGCGAAUCCUAACAUGAGGAUCACCCAUGU [5.A]
4. ACGUCUCGAAAACUCGUAGUAACUAUAGAUACCAGUAGCGAGAGUUACCCUUGGCAGCUACAUGAGGAUCACCCAUGUACGAGGA [XTheo A #28]
5. AAAAUAAAUAAAACGGGUAACAUGAAGGAUACCAGCCAGGAAACUGGCCCUUGGCAGCCUCUACAUGAGGAUCACCCAUGUCCCG [Mat - Same State Theophlline A - Mod of Eli - D14]
6. UGUAUGUGAUCUGAUACCAGCUUUGAUAACCUGAGGAUCACCCUGGUAAAGGCGAAAGCCGGCCCUUGGCAGCAGAUCGCAUACU

18.6
36.5
33.4
15.1
454
59.7

Field: apparent KD of MS2 coat protein. Fill in for each record below.
1. UGACGAGGCCUGGAUACCAGCGACAUGAGGAUCACCCAUGUAUGAGGAUCAGCCAUGUUAUGCCCUUGGCAGCCACGAAGGUCAG [WQQMULLIN]
2. ACGAUAGGACAUGAGGAUCACCCAUGUGAUACCAGCCUGGAAACAGGCCCUUGGCAGCACAAAUACUCCAGAAACCUAUCGAAAA [MAT - Exclusion Theophlline A - Mod of Eli - D5]
3. AUACCUAAUGAGUCGUGUAACUUUUCAGAUACCAGACUUUUCGUUGUCCCUUGGCAGCUGUUUUACAUGAGGAUCACCCAUGUUG [JR_ExcTheophyA_Sub008]

1: 22.9; 2: 337; 3: 14.9

* * *

- Tested on: MS2 coat protein
- assayName: apparent KD of MS2 coat protein; designed switch direction (-1 OFF switch, 1 ON switch): -1; higher = weaker reporter binding
- particulars: Eterna round: R95; input ligand: FMN 200 uM
observedProperty: apparent KD of MS2 coat protein
I'd appreciate it if you included the unit after the number.

Sample answers from the record:
# recordSequence, testSystem, apparent KD of MS2 coat protein
measured = [
    ("CGAAAUGCCCGUGGCCACAAGCUUUUUGCUUGUCUUACUACAUGAGGAUCACCCAUGUACCAUGGGCUCCUGACCAU [Rixele] (puzzle: Sensor v3, turn-off variant 2)", "MS2 coat protein", "13.6 nM"),
    ("AACUAGGCAGGAUAUACAUGAGGAUCACCCAUGUGCCAAUACAAAGGGACUAACAGAGGUAGAAGGGCCUAGAA [ChP 13.04.2015 #2] (puzzle: Exclusion 3)", "MS2 coat protein", "155 nM"),
    ("GGUCGAGAACAGCUCCGCGCCGCCCUCGACCGCUCAUUUACAUGAGGAUCACCCAUGUUUUUUGCUUGUCUUGUUUC [Ceerar] (puzzle: Sensor v3, turn-off variant 2)", "MS2 coat protein", "20.6 nM"),
]

Please go through the list and note apparent KD of MS2 coat protein for each sequence.
1. UAAUACUCAGGAUAUAUGAUGUGAAACAUGAGGAUCACCCAUGUAAUAUUAUGGAUGUAAAUAGAAGGGAGAUUAU [Mat - Exclusion 5 - JL mod - D20] (puzzle: Exclusion 5)
2. GUGUAACUACACGGGCUCAACAUGAGGAUCACCCAUGUCAUACACGCAAGCUUUUCGCUUGUCUUAUCUGUCCGUGA [Mainesleed] (puzzle: Sensor v3, turn-off variant 1)

1. 53.3 nM
2. 12.5 nM

* * *

- System: MS2 coat protein
- assayName: apparent KD of MS2 coat protein, switch OFF state (with FMN for OFF switches, without FMN for ON switches); designed switch direction (-1 OFF switch, 1 ON switch): -1; higher = weaker reporter binding
- particulars: FMN input: 0 or 200 uM; Eterna round: R93 (includes R88 designs)
Give apparent KD of MS2 coat protein for every item shown.
One number for each entry, in nM.

# recordSequence, uom, apparent KD of MS2 coat protein
records = [
    ("AAAAAGUGAGGAUAUACAUGAGGAUCACCCAUGUUAAGGUAAUAUAUAUAUAUAUAUAGUAGAAGGCACAAAAA [Default title]", "nM", 31.5),
    ("AGGAAGUGAGGAUAUGCUGCUCGUCACUUGCGUGAUGAGUAGCAGAAGGCACAUGAGGAUCACCCAUGUAAAAA [Mat - Exaclusion 4 - Eli mod - D21]", "nM", 48.9),
    ("AAAACACAUGAGGAUCACCCAUGUGAGGAUAUGAACGAAAAUAAAUAAAAAUAAAAGUUCAGAAGGCACAAAAA [66%, Wbt, 11]", "nM", 36.1),
    ("AAUGGUGGAGGAUAUACAUGAGGAUCACCCAUGUAAAUCACACAUGUGGUCAAAGCAUGUAGAAGGCCACUAAA [Ex 3May 52]", "nM", 84.9),
    ("GGAAAACAUGAGGAUCACCCAUGUAAGGAUAUGCUAAAAAAGGAAAAAAACCCACCAGGCAGAAGGUACUAAAG [Janelle Amethyst 18 Mod 3 - Jieux - Exclusion 1]", "nM", 53.2),
]

Fill in apparent KD of MS2 coat protein for each of the 4 sequences listed.
1. AAUAAACAUGAGGAUCACCCAUGUGAGGAUAUACAGAUUAUAAGAAAAAAAAAAAAAAGUAGAAGGCACAUAUA [Default title]
2. AACAUGUAAGGAUAUCUAAGAAAAGAAAAGAAAGAAAAGAAAGAGAAGGUACAUGAGGAUCACCCAUGUAAGAA [EteRNA is fun!]
3. AAAAAGUCAGGAUAUGUACAAAAUAAAAUAAAAAUAAAAGUACAGAAGGGACAUGAGGAUCACCCAUGUAAAAA [Ex 4 May 11]
4. AAGAACAUAGGAUAUACAAGGAAGAAAGAAAAGAAAAGAAAACAUGAGGAUCACCCAUGUAGAAGGAUGUAGAA [EteRNA is fun!]

45.9
18.3
36.6
24.8

* * *

- System: MS2 coat protein
- assayName: apparent KD of MS2 coat protein; higher = weaker reporter binding
- particulars: Eterna round: R107; input ligand: theophylline 20 uM
Give apparent KD of MS2 coat protein for every item shown.
Answers are plain numbers, in nM.

# annotated cases, reported apparent KD of MS2 coat protein shown
# recordSequence, observedMeasurement
data = [
    ("AAACUAACGAGAGGAAACCUCGAGGGUGAUACCAGCACAUAAGGGUGCCCUUGGCAGCACCGACGUACAUGAGGAUCACCCAUGU [Gexegees]", 154),
    ("GUUGGAUUUUCGGCCGCCACUGAGAGAGUCAUGUGAACAUGAGGAUCACCCAUGUAAUAUAUAUACAGGACCGGGAGGGUUGUAA [4.L]", 26.3),
    ("UGAUACCAGUCGGCCGCCACUACAUGAGGAUCACCCAUGUAUGGGUCAAUGCUAGAUACUAGCAGUAGGACCGGGACUGGUAUCU", 14.8),
    ("GCAUCCUAGUCGGCCGCCACUGGUACGAACACCUUCACCCGUGUGCACAUGAGGAUCACCCAUGUCAGGACCGGGACUAGGAUGC [SSTryp B #22]", 10.9),
    ("UCGUGUAUAUCGGAUACCAGUGAGAAGGAUACAUGAGGAUCACCCAUGUGAGUUGAUGUACACCCUUGGCAGCUGUAUAUAUCUA [.plullin]", 62.7),
]

Kindly give each listed record's apparent KD of MS2 coat protein.
1. UGCAUGAUCUGAAGGAGCGUGUAUGAUGAUAACAUGAGGAUCACCCAUGUCGAGACGGUAACACAGGUAGGUCGCAGAUCAUGCU [Arg B SS t4]
2. CGAUCUUUCGAAAGAAGGAUCGAUUCUGAUACCAGAGACGAAAGUCUCCCUUGGCAGCAGUGCCAACAUGAGGAUCACCCAUGUA [Theophylline A 8]
3. GCGCGGCGAGUGCGGCGUGUUCCGCUCCGUCGAGGACCGGUACGGCCGCCACUCGACAUGAGGAUCACCCAUGUCGCCGCGCGUC [Exclusion - Tryptophan A Attempt #1]

1: 31.7; 2: 26; 3: 48.6
